From: paper PMC6225304

Overview of reported reduction in cell viability across a group of compounds:
System: differentiated PC-12 Adh cells
procedure_summary: Neuroprotective activity against 6-OHDA-induced neurotoxicity (WST-1 cell viability)
Type: cell-based, rat
conditions_used: 100 µg/mL compound for 6 h, then 150 µM 6-OHDA for 24 h
Just the number in %, nothing appended.

Known results for compounds:
{"columns": ["compound", "reduction in cell viability / %"],
 "data": [
  ["CS(=O)(=O)c1ccc(N2N=C(c3cccs3)CC2c2ccc3c(c2)OCO3)cc1 (stereo not shown)", 23],
  ["Cc1ccc(C2CC(c3ccco3)=NN2c2ccc(S(C)(=O)=O)cc2)cc1 (stereo not shown)", 20],
  ["O=C(/C=C/c1ccc2c(c1)OCO2)c1cccs1", 34.1]
]}

Lookup: I'd like to know its reduction in cell viability. The compound in question is Cc1ccc(/C=C/C(=O)c2ccco2)cc1
Found: 97

---

procedure_summary: Neuroprotective activity against 6-OHDA-induced neurotoxicity (WST-1 cell viability)
Format: cell-based, rat
conditions_used: rat, 150 µM 6-OHDA alone for 24 h (positive control); % of the control
value_type: viability at 24 h, 150 µM (%)
Just the number in %, nothing appended.

Lookup: I'd like to know its viability at 24 h, 150 µM. The compound in question is NCCc1cc(O)c(O)cc1O [Compound 6-OHDA, 6-hydroxydopamine]
Found: 57
